Reported melting point values follow for various compounds

Example results:
Incoming: Suppose we examine the compound CNC(=O)c1ccnc(NC(=O)N2CCC3(CCc4cc(F)ccc4O3)CC2)c1 [Example 1.4] ; what melting point value has been reported?
Outgoing: 175 to 176 °C

Incoming: NC(=O)c1ccnc(NC(=O)N2CCC3(CCc4cc(F)ccc4O3)CC2)c1 [Example 3] , same question.
Outgoing: 265 to 267 °C

Incoming: Next compound up: CNC(=O)c1ccnc(NC(=O)N2CCC3(CCc4ccc(F)cc4O3)CC2)c1 [Example 1.1]
Outgoing: 177 to 179 °C

Continuing:
Incoming: // lookup melting point for CNC(=O)c1ccnc(NC(=O)N2CCC3(CC2)Cc2ccccc2C3)c1 [Example 1.7]
Outgoing: 229 to 231 °C

Incoming: Likewise for CNC(=O)c1cccc(NC(=O)N2CCC3(CCc4ccc(F)cc4O3)CC2)n1 [Example 1.5] ?
Outgoing: 126 to 128 °C

Incoming: And Cc1nc(NC(=O)N2CCC3(CCc4ccc(F)cc4O3)CC2)sc1C(=O)NCc1ccccn1 [Example 4] ?
Outgoing: 165 to 167 °C

Incoming: Proceed to CNC(=O)c1cncc(NC(=O)N2CCC3(CCc4ccc(F)cc4O3)CC2)c1 [Example 1.6]
Outgoing: 231 to 233 °C

Incoming: And the next one, CNC(=O)c1ccnc(NC(=O)N2CCC3(CC2)CC(=O)c2cccc(Cl)c2O3)c1.Cl [Example 1.3] ?
Outgoing: 215 °C (dec.)

* * *

- Tested target: stearoyl-CoA desaturase (SCD1) (Mus musculus, UniProt P13516)
- Sequence (P13516 1-355): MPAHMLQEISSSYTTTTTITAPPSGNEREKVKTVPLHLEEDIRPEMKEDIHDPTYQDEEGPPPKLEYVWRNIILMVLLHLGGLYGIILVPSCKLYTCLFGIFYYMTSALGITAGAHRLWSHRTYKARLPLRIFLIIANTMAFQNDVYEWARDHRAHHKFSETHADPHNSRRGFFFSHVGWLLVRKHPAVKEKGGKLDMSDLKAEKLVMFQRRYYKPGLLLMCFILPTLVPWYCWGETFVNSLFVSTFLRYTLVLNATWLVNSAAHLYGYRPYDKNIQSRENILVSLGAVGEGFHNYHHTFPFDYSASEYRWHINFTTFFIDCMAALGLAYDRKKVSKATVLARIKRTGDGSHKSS
Counter-ions that a name gives are not always drawn.
Attribute measured: IC50
Answer shape: numeric part, then the unit.

// worked examples, IC50 included
Incoming: Tell me reported IC50 for CNC(=O)c1ccnc(NC(=O)N2CCC3(CCc4cccc(Cl)c4O3)CC2)c1 [Example 1.2, hydrochloride] , tested with stearoyl-CoA desaturase (SCD1) (Mus musculus, UniProt P13516).
Outgoing: 3 nM

Incoming: What about this molecule? CNC(=O)c1ccnc(NC(=O)N2CCC3(CC2)CC(=O)c2cccc(Cl)c2O3)c1.Cl [Example 1.3, hydrochloride]
Outgoing: 56 nM

Incoming: Could you do the same for Cn1cc(CNC(=O)c2ccnc(NC(=O)N3CCC4(CCc5cc(F)ccc5O4)CC3)c2)cn1 [Example 2.1, hydrochloride] , please?
Outgoing: 40 nM

More entries:
Incoming: Param readout= IC50; system= stearoyl-CoA desaturase (SCD1) (Mus musculus, UniProt P13516); entry= Cc1nc(NC(=O)N2CCC3(CCc4ccc(F)cc4O3)CC2)sc1C(=O)NCc1ccccn1 ; returns value.
Outgoing: 48 nM

Incoming: How about CNC(=O)c1ccnc(NC(=O)N2CCC3(CCc4ccc(F)cc4O3)CC2)c1 ?
Outgoing: 17 nM

Incoming: Try this molecule too: CNC(=O)c1ccnc(NC(=O)N2CCC3(CC2)CC(=O)c2ccc(F)cc2O3)c1 [Example 1, hydrochloride]
Outgoing: 524 nM
